The measurements presented in this section are drawn from patent US20260365628A1.

Target system: hTSHR (Homo sapiens, UniProt P16473)
Construct: expressed in transfected cells
Sequence (P16473 21-764): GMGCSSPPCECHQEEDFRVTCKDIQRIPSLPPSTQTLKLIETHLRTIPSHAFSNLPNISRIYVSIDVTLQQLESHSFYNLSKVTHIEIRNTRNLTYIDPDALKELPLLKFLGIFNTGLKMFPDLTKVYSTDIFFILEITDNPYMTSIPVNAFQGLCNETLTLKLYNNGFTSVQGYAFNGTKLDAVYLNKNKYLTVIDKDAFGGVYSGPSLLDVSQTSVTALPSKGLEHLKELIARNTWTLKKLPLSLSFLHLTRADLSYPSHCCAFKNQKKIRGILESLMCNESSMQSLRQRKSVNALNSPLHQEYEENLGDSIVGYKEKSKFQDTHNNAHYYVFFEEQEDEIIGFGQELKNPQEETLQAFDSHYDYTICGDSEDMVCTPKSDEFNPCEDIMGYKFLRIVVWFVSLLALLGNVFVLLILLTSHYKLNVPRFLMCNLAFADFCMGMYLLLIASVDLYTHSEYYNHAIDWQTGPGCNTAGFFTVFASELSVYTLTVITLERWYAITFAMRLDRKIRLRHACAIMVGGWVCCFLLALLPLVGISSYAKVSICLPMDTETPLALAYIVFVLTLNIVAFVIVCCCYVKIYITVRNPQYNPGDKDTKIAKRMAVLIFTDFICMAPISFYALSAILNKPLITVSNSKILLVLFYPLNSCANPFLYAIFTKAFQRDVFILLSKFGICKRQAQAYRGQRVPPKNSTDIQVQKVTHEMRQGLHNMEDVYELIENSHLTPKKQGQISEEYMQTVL
Procedure summary: hTSHR TR-FRET cAMP Assay (inhibition of M22-stimulated cAMP production)
Assay type: cell-based
Measurement context: Expi293F Inducible cells stably expressing hTSHR; cAMP HTRF; stimulated with EC80 of anti-TSHR antibody M22; 15 min compound preincubation, 30 min at 37° C.; read-out: Activity (IC50 bins)
pIC50: −log10 of the molar value.
List of pIC50 values.

{"columns": ["Molecule", "pIC50"],
 "data": [
  ["C[C@@H](c1cccc(OC(F)(F)F)c1)n1c(=O)cnc2cc(NC(=O)NC3(C(F)(F)F)CCC3)ccc21", "6.00 to 7.00"],
  ["C[C@H]1Oc2cc(NC(=O)NC(C)(C)C)ccc2N(Cc2cccc(C(F)(F)F)n2)C1=O", "> 7.00"],
  ["CC(C)(C)NC(=O)Nc1ccc2c(c1C#N)CCC(=O)N2Cc1ccccc1", "< 6.00"],
  ["C[C@@H](c1cccc(C(O)C(F)(F)F)n1)n1c(=O)cnc2cc(NC(=O)NC(C)(C)C)ccc21 (stereo in doubt)", "6.00 to 7.00"],
  ["C[C@H]1Oc2cc(NC(=O)NC(C)(C)C)ccc2N(Cc2cccc(OC(F)(F)F)n2)C1=O", "> 7.00"],
  ["COCC1Cc2cc(NC(=O)NC(C)(C)C)ccc2N(Cc2ccccc2)C1=O (stereo not shown)", "6.00 to 7.00"],
  ["C[C@@H](c1cccc(OC(F)F)c1)n1c(=O)cnc2cc(NC(=O)NC(C)(C)C)ccc21", "6.00 to 7.00"]
]}

----------
Target system: hTSHR (Homo sapiens)
Construct: expressed in transfected cells
Procedure summary: hTSHR TR-FRET cAMP Assay (inhibition of M22-stimulated cAMP production)
Format: cell-based
Measurement context: Expi293F Inducible cells stably expressing hTSHR; cAMP HTRF; stimulated with EC80 of anti-TSHR antibody M22; 15 min compound preincubation, 30 min at 37° C.; read-out: Activity (IC50 bins)

{"columns": ["Molecule", "IC50"],
 "data": [
  ["C[C@H]1Oc2cc(NC(=O)NC(C)(C)C)c(C#N)cc2N(Cc2ccccc2)C1=O", "100 to 1000 nM"],
  ["CC(C)(C)NC(=O)Nc1ccc2c(c1)OCC(=O)N2Cc1ccccc1", "< 100 nM"],
  ["CC1(C)CN(C(=O)Nc2ccc3c(c2)ncc(=O)n3Cc2ccccc2)C1", "> 1000 nM"],
  ["C[C@@H](c1ccccc1C#N)N1C(=O)CCc2cc(NC(=O)NC(C)(C)C)ccc21", "100 to 1000 nM"],
  ["CC(C)(C)NC(=O)Nc1ccc2c(c1)OC(CF)C(=O)N2Cc1ccccc1 (centres unmarked)", "100 to 1000 nM"],
  ["CC(C)(C)NC(=O)Nc1ccc2c(c1)OCC(=O)N2Cc1cccc(C(O)CC(F)(F)F)c1 (centres unmarked)", "100 to 1000 nM"],
  ["C[C@@H](c1cccc2ccncc12)n1c(=O)cnc2cc(NC(=O)NC(C)(C)C)ccc21", "> 1000 nM"],
  ["CC(C)CCc1cccc([C@H](C)n2c(=O)cnc3cc(NC(=O)NC(C)(C)C)ccc32)c1", "100 to 1000 nM"],
  ["C[C@H]1Oc2cc(NC(=O)NC(C)(C)C)ccc2N(Cc2ccccc2)C1=O", "< 100 nM"],
  ["CC(C)(CC(F)(F)F)NC(=O)Nc1ccc2c(c1)ncc(=O)n2Cc1cccc(OC(F)(F)F)c1", "100 to 1000 nM"],
  ["CC(C)(C)NC(=O)Nc1ccc2c(c1)ncc(=O)n2Cc1cccc(CCCC(F)(F)F)n1", "100 to 1000 nM"],
  ["C[C@@H](c1cccc(OCCC(F)(F)F)c1)n1c(=O)cnc2cc(NC(=O)NC(C)(C)C)ccc21", "100 to 1000 nM"],
  ["C[C@H]1Oc2cc(NC(=O)NC(C)(C)C)ccc2N([C@@H](C)c2cc(Cl)ccc2Cl)C1=O", "100 to 1000 nM"],
  ["CC1Oc2cc(NC(=O)NC(C)(C)C)ccc2N(Cc2cccc(Cl)c2)C1=O (single isomer, unassigned) [Example 43]", "< 100 nM"],
  ["C[C@@H](c1cccc2c1COCC2)n1c(=O)cnc2cc(NC(=O)NC(C)(C)C)ccc21", "100 to 1000 nM"],
  ["C[C@H]1Oc2cc(NC(=O)NC(C)(C)C)ccc2N(Cc2ccnc(C(F)(F)F)c2)C1=O", "100 to 1000 nM"],
  ["C[C@@H](c1ccccc1)N1C(=O)N(C)Cc2cc(NC(=O)NC(C)(C)C)ccc21", "< 100 nM"],
  ["C[C@H](c1ccccc1)N1C(=O)[C@@H](C)Oc2cc(NC(=O)NC(C)(C)C)ccc21", "> 1000 nM"],
  ["C[C@H]1Oc2cc(NC(=O)NC(C)(C)C)ccc2N([C@@H](C)c2cc(F)ccc2F)C1=O", "< 100 nM"],
  ["C[C@H]1Oc2cc(NC(=O)OC3CCCC3)ccc2N(Cc2cccc(C(F)(F)F)n2)C1=O", "< 100 nM"],
  ["C[C@@H](c1cccc(CCCC(C)(C)O)c1)n1c(=O)cnc2cc(NC(=O)NC(C)(C)C)ccc21", "> 1000 nM"],
  ["C[C@@H](c1cccc(Cl)c1)N1C(=O)N(C)Cc2cc(NC(=O)NC(C)(C)C)ccc21", "< 100 nM"],
  ["CC1(NC(=O)Nc2ccc3c(c2)ncc(=O)n3Cc2ccccc2)CCC1", "100 to 1000 nM"],
  ["CC(C)(C)NC(=O)Nc1cc(F)c2c(c1)CCC(=O)N2Cc1ccccc1", "100 to 1000 nM"],
  ["C[C@@H](c1c(F)cccc1F)n1c(=O)cnc2cc(NC(=O)NC(C)(C)C)ccc21", "100 to 1000 nM"],
  ["C[C@H](c1cncc(C(F)(F)F)n1)N1C(=O)[C@@H](C)Oc2cc(NC(=O)NC(C)(C)C)ccc21", "100 to 1000 nM"],
  ["CC(C)(CC#N)NC(=O)Nc1ccc2c(c1)ncc(=O)n2Cc1cccc(OC(F)(F)F)c1", "> 1000 nM"],
  ["C[C@@H](c1ccccc1)N1C(=O)CCc2nc(NC(=O)NC(C)(C)C)c(C(F)(F)F)cc21", "< 100 nM"],
  ["C[C@@H](c1cccc(OC(F)(F)F)c1)n1c(=O)cnc2cc(NC(=O)NC3CC(F)(F)C3)ccc21", "100 to 1000 nM"],
  ["C[C@@H](c1cccc(C(F)F)c1)n1c(=O)cnc2cc(NC(=O)NC(C)(C)C)ccc21", "100 to 1000 nM"],
  ["C[C@H]1Oc2nc(NC(=O)NC(C)(C)C)c(C(F)(F)F)cc2N(Cc2ccccc2)C1=O", "< 100 nM"],
  ["CC(C)(C)NC(=O)Nc1ccc2c(c1)CC(C)(C)C(=O)N2Cc1ccccc1", "> 1000 nM"]
]}
